# Test system: DU-145 prostate
# method_notes: NCI tumour cell line growth inhibition, 48 h; in the data active = GI50 below about 0.43 µM; inactive = the rest
Hi there, use one of these labels in your reply, thanks! yes (1) = active, no (0) = inactive

Record excerpt, results attached:
O=C(/C(=C\c1ccc([N+](=O)[O-])cc1)S(=O)Cc1ccc(F)cc1)c1ccc(F)cc1 (configuration not stated) | no (0)
COC(=O)[C@]12CC[C@@H](C)[C@H](C)[C@@H]1C1=CC[C@@H]3[C@@]4(C)C(C=O)=C[C@@](C)(COC(C)=O)C4=CC[C@@]3(C)[C@]1(C)CC2 | no (0)
O=C(c1ccccc1)c1ccc(Oc2ccc([N+](=O)[O-])cc2[N+](=O)[O-])cc1 | no (0)
C[C@H](Nc1ncnc2nc[nH]c12)c1cc2ccc(F)cc2nc1-c1ccccn1 | no (0)
O=[N+]([O-])c1ccc(Sc2ncnc3nc[nH]c23)c2nonc12 | no (0)
O=C(CN(/C=C/C(=O)C(F)(F)F)c1ccc(Cl)cc1)c1ccccc1 | no (0)
COc1ccc(C(=O)COC(=O)[C@H](C[Se][Se]C[C@H](NC(=O)c2ccc(Br)cc2F)C(=O)OCC(=O)c2ccc(OC)cc2)NC(=O)c2ccc(Br)cc2F)cc1 | no (0)
Cc1cc(O)ccc1C1=NN(c2ccc(S(C)(=O)=O)cc2)C(=O)CC1 | no (0)
COc1ccc2c(CN3CCC(C(=O)O)CC3)cc3cc4c(cc3c2c1)OCO4 | no (0)
COc1cc2nc(SCC(=O)Nc3cc(OC)c(OC)c(OC)c3)n(Cc3ccccc3)c(=O)c2cc1OC | no (0)

What call does the record list for `Cl.Fc1c[c-]c(-c2ccccn2)c(F)c1.[Pt].c1ccc(P(c2ccccc2)C([PH+](c2ccccc2)c2ccccc2)[PH+](c2ccccc2)c2ccccc2)cc1` ?
no (0)

What call does the record list for `O=C1c2nsnc2C(=O)c2c(F)c(F)c(F)c(F)c21` ?
no (0)
